Target: T1, recombinant human interleukin 12 (p40/p35 heterodimer) (human, UniProt P29460 23-328; P29459 23-219)
T1 chain 1: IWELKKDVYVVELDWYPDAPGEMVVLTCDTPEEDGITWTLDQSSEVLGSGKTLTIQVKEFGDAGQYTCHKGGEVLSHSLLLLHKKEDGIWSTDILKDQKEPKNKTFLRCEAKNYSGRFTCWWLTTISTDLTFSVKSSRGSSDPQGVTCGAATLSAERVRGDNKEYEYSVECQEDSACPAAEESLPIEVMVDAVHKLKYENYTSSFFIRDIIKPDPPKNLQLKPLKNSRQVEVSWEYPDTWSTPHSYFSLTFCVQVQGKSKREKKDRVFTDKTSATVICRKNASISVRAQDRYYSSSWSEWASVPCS
T1 chain 2: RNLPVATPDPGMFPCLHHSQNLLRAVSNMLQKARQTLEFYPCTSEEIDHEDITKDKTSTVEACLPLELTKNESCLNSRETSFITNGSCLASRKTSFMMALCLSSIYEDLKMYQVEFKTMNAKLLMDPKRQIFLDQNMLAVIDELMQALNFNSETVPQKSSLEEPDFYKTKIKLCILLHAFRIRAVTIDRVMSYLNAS
Experiment: BIAcore
Note to self: koff under 0.002 s⁻¹ means YES, ties and anything higher get NO.

Some solved entries appear below for comparison.
Query :: A record lists HGSTDN [Y61 H98 T] . Is its koff below 0.002 s⁻¹?
Result :: YES

Query :: Say whether its koff is strictly beneath 0.002 s⁻¹. Entry: HGSLDN [Y61 H98 L]
Result :: YES

Query :: For this binder, is koff lower than 0.002 s⁻¹? PGSHDN [Y61 H95 P]
Result :: NO

Then this binder:
Query :: Is koff of HGSHHN [Y61 H101 H] strictly below 0.002 s⁻¹?
Result :: NO
